ASSAY TARGET: UniProtKB Q02763
Sequence (Q02763 762-1104): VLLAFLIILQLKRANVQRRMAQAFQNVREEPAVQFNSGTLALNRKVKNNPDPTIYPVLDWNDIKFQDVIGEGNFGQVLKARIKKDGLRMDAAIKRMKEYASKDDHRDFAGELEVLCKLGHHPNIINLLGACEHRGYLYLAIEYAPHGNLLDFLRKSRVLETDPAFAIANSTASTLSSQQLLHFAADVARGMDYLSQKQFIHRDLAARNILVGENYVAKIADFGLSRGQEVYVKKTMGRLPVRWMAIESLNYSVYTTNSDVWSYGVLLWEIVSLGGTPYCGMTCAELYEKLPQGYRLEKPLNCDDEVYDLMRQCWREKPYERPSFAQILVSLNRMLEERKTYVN
pIC50: −log10 of the molar value.
RESULT TYPE: pIC50

**Query** Report pIC50 under test system UniProtKB Q02763 for "Nc1nccc2occ(-c3ccc(NC(=O)Nc4cc(C(F)(F)F)ccc4F)cc3)c12" .
**Result** 7.00 to 7.99
